system: Sindbis virus; experiment: Antiviral activity against Sindbis virus infected Vero cells assessed as inhibition of virus-induced cytopathicity; format: functional, organism-based
Hi there, I'd appreciate the recorded EC50 for every entry that follows.

A selection of reference data follows.
INSERT INTO results (compound, measured_value) VALUES
  ('CSc1ccc(/C=N/NC(=O)c2ccncc2)cc1', '> 100 µg/mL'),
  ('Cc1ccc(/C=N/NC(=O)c2ccncc2)cc1', '> 20 µg/mL');

Attention now shifts to the item below.
Sample COc1cc(/C=N/NC(=O)c2ccncc2)ccc1O [FTIVAZIDE] ; EC50 observed: > 100 µg/mL

---

test system: Aspergillus niger; assay: Antimicrobial activity against Aspergillus niger after 7 days by serial dilution method; type: functional
ENDPOINT: -logMIC
Answers are plain numbers.

Take a look at these entries with their results.
INSERT INTO assay_data (molecule, measured_value) VALUES
  ('O=C(c1ccccc1)N(/N=C/c1ccccc1O)C(=O)c1ccncc1', 2.44),
  ('COc1cccc(OC)c1/C=N/N(C(=O)c1ccccc1)C(=O)c1ccncc1', 2.49),
  ('C/C=C/C=N/NC(=O)c1ccncc1', 2.18),
  ('Cc1ccc(/C=N/NC(=O)c2ccncc2)cc1', 2.28),
  ('COc1cc(/C=N/NC(=O)c2ccncc2)ccc1O [FTIVAZIDE]', 2.34);

Your task in this section: give -logMIC for each listed record.
1. COc1cc(/C=N/NC(=O)c2ccncc2)cc(OC)c1OC
2. CSc1ccc(/C=N/NC(=O)c2ccncc2)cc1
3. OC(Cn1cncn1)(Cn1cncn1)c1ccc(F)cc1F

[2.4, 2.34, 2.64]

Quick batch: -logMIC for everything below.
1. O=C(N/N=C/c1c(O)ccc2ccccc12)c1ccncc1
2. CCOc1cc(/C=N/N(C(=O)c2ccccc2)C(=O)c2ccncc2)ccc1O

[2.37, 2.19]

Please state -logMIC for every molecule in the list that follows.
1. CC(Cl)C(=O)NNC(=O)c1ccncc1 (stereo unspecified)
2. Cc1ccc(/C=N/N(C(=O)c2ccccc2)C(=O)c2ccncc2)cc1

2.26
2.44

Please state -logMIC for every molecule in the list that follows.
1. COc1cccc(OC)c1/C=N/NC(=O)c1ccncc1
2. CCOc1cc(/C=N/NC(=O)c2ccncc2)ccc1O
3. O=C(NNC(=O)c1cc([N+](=O)[O-])ccc1Cl)c1ccncc1

2.36
2.36
2.41

Recorded result, CSc1ccc(/C=N/N(C(=O)c2ccccc2)C(=O)c2ccncc2)cc1 , -logMIC: 2.48
